target: Chymase (Homo sapiens)
Sequence (P23946 whole entry): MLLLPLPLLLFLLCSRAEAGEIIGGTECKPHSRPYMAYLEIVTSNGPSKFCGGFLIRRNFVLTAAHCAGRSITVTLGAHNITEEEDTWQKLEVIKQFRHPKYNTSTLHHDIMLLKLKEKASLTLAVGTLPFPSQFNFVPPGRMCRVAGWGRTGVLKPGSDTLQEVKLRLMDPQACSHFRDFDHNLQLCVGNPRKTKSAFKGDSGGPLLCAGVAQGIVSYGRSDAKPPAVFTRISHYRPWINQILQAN
recorded metric: IC50

Task: // IC50 lookup, key: O=C(O)c1c(F)ccc2c1OB(O)[C@@H]1C[C@H]21
Output: > 1000 µM

---

assay: AUC in rat at 300 mg/kg, po administered via gavage by HPLC/MS analysis; assay type: ADME, organism-based; settings: in vivo
recorded metric: AUC (µg·h/mL)
Use µg·h/mL as the unit, but write only the number.

Task: # query: AUC of entry O=C(O)c1c(F)ccc2c1OB(O)[C@@H]1C[C@H]21 [XERUBORBACTAM]
Output: 177

---

test system: Escherichia coli; assay: Inhibition of Escherichia coli EC308 SHV-5 assessed as minimum concentration of compound needed to reduce the MIC of aztreonam to 4 ug/ml
recorded metric: MEC (µg/mL)
Write the value in µg/mL as a bare number.

Task: Dear colleague, I am looking for the recorded MEC of the following molecule: CSCC(=O)N[C@H]1Cc2ccc(SCCO)c(C(=O)O)c2OB1O
Output: 0.04

Task: Also CSCC(=O)N[C@H]1Cc2ccc(SC3CNC3)c(C(=O)O)c2OB1O , if possible.
Output: 0.6

Task: // next record CSCC(=O)N[C@H]1Cc2ccc(SC)c(C(=O)O)c2OB1O
Output: 0.04

Task: Please answer likewise for CSCC(=O)N[C@H]1Cc2ccc(OCC(=O)O)c(C(=O)O)c2OB1O
Output: 0.08

Task: Let us now turn to CSCC(=O)N[C@H]1Cc2ccc(SCC(N)=O)c(C(=O)O)c2OB1O
Output: 0.16

Cited source for all entries: ChEMBL document CHEMBL4616632
